Biological target: T1, human IL-18Rβ ECD Fc fusion (118-AP-100, R&D Systems) (human, UniProt O95256 20-356)
T1 construct: Bought protein; also called hIL-18Rβ; recombinant human IL-18Rb; not shown: Fc tag of the bought fusion protein, not described
T1 sequence: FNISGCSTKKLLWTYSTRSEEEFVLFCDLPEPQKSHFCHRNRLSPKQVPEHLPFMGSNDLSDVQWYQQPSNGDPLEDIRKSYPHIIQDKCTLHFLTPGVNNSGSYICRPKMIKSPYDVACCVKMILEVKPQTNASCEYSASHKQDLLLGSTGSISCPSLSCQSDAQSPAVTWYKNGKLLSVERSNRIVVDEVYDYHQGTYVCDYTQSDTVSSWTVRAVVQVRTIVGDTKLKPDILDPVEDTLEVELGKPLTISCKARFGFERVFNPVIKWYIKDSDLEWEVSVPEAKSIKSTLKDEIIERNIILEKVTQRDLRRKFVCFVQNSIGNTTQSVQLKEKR
Assay: ELISA on recombinant human IL-18Rβ, normalised OD 450 nm, Fab with PBS or with saturating IgG 3131 [bottom plot]
RECORDED ENDPOINT: binding result

{"BINDER": "3131 AM2-32 (Fab, V domains shown, Fab) VH: EVQLVESGGGLVQPGGSLRLSCAASGFNLYYSSMHWVRQAPGKGLEWVASIYSSYGYTYYADSVKGRFTISADTSKNTAYLQMNSLRAEDTAVYYCARSSFSHGYGWYGLDYWGQGTLVTVSS VL: DIQMTQSPSSLSASVGDRVTITCRASQSVSSAVAWYQQKPGKAPKLLIYSSSSVYSGVPSRFSGSRSGTDFTLTISSLQPEDFATYYCQQYGYHYAGLITFGQGTKVEIK", "MEASURED": "binds"}
{"BINDER": "3131 AM2-37 (Fab, V domains shown, Fab) VH: EVQLVESGGGLVQPGGSLRLSCAASGFNLYYSSMHWVRQAPGKGLEWVASIYSSSGSTSYADSVKGRFTISADTSKNTAYLQMNSLRAEDTAVYYCARSSFSHGYGWYGLDYWGQGTLVTVSS VL: DIQMTQSPSSLSASVGDRVTITCRASQSVSSAVAWYQQKPGKAPKLLIYSASSLYSGVPSRFSGSRSGTDFTLTISSLQPEDFATYYCQQYGYHSAGLITFGQGTKVEIK", "MEASURED": "binds"}
{"BINDER": "3131 AM2-36 (Fab, V domains shown, Fab) VH: EVQLVESGGGLVQPGGSLRLSCAASGFNLYYSSMHWVRQAPGKGLEWVASIYSSSGSTSYADSVKGRFTISADTSKNTAYLQMNSLRAEDTAVYYCARSSFSHGYGWYGLDYWGQGTLVTVSS VL: DIQMTQSPSSLSASVGDRVTITCRASQSVSSAVAWYQQKPGKAPKLLIYSASSLYSGVPSRFSGSRSGTDFTLTISSLQPEDFATYYCQQYGYHYAGLITFGQGTKVEIK", "MEASURED": "binds"}

Attribution: patent US20240262919A1
